# target.or.test.system: T1, BCDX2 complex (human, UniProt O15315;O43502;O75771;O43543 1-384;1-376;1-328;1-280)
# T1 sequence 1: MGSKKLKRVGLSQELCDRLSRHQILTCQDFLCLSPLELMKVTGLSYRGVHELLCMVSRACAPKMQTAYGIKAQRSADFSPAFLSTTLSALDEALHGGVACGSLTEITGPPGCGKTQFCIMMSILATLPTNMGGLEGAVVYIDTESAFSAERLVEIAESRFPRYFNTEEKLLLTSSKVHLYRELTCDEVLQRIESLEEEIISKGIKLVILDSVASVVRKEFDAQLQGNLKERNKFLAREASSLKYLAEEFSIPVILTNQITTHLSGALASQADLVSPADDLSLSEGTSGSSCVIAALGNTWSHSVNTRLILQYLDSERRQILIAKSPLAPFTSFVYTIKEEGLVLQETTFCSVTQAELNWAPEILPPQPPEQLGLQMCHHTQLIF
# T1 sequence 2: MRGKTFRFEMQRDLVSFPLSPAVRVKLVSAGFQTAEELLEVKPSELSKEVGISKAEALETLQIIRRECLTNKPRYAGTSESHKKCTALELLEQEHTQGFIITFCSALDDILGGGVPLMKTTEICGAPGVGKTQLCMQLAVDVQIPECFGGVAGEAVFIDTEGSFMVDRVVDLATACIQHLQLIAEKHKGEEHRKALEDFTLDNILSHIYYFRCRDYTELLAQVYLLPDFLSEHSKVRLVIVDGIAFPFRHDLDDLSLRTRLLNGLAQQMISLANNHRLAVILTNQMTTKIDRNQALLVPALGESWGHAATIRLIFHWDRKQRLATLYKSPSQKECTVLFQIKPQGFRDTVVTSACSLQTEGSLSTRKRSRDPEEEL
# T1 sequence 3: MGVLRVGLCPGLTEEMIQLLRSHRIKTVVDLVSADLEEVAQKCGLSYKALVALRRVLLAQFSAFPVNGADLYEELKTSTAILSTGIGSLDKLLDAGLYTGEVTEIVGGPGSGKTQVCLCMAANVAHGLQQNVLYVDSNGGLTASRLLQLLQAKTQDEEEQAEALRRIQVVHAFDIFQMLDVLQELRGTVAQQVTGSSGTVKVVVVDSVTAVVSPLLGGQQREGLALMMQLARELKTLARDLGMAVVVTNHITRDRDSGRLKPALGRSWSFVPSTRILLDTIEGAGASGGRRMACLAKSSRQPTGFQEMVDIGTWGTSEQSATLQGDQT
# T1 sequence 4: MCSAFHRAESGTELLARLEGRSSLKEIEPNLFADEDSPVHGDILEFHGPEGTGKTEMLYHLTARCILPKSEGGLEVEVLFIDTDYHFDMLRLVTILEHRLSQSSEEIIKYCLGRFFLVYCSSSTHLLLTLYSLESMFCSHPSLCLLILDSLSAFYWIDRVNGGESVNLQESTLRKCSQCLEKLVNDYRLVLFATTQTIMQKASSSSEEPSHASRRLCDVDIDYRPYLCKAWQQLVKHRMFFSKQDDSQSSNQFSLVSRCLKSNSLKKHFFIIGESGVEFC
# experimental.details: stopped-flow fluorescence (total amplitude); Kd,net two-step; ATP, Mg2+; EMSA: 20 mM Tris-HCl pH 7.5, 2 mM MgCl2, 2 mM ATP, 37 C, 20 nM DNA, glutaraldehyde fixation; stopped-flow: 25 mM Tris-HCl pH 7.5, 5 mM MgCl2, 50 mM KCl, 2 mM ATP, 0.5 mM EDTA, 10% glycerol, 37 C; BLI: 50 mM Tris-HCl pH 7.5, 2 mM ATP, 50 mM KCl, 5 mM MgCl2, 0.05% Tween 20, room temperature
# condition.description: protein: recombinant; tags: Strep-tag and His-tag (XRCC2 N-terminal His); copies: 1;1;1;1; label: Cy3 at 3' or 5'
measured.property: pKd
Entry type: numeric. Quantity: pKd, the -log10 of concentration in molar units.

Qu. Would you mind telling me what pKd value was observed for TTTTTTTTTTTTTTTTTTTTTTTTTTTTTTTTTTTTTTTTTTT (ssDNA) [Cy3-dT43] ?
Ans. 6.66
